Assay: Entrapment and RNA concentration of RSV-F replicon liposomes (Quant-iT RiboGreen)
Type: physicochemical
Conditions: RSV-F replicon LNP prepared for 2nd IM
Protocol: RNA was encapsulated in liposomes made essentially by the method of Geall et al. (2012) PNAS vol. […] The percentage of encapsulated RNA and RNA concentration were determined by Quant-iT RiboGreen RNA reagent kit (Invitrogen), following manufacturer's instructions. […] The fluorescence (Ex 485 nm, Em 528 nm) was read on a microplate reader. […] % entrapment (% E), Concentration of RNA (Conc), particle size measured by DLS, and polydispersity reported by DLS of LNPs prepared with different cationic lipids
observedProperty: % E (% entrapment) (%)

# compound, observedProperty, measuredNumber
measured = [
    ("CCCCCCCCCCCCC(CCOC(=O)CCCCC(OCC(CC)CCCC)OCC(CC)CCCC)OC(=O)OCCCN(CC)CC (stereo not drawn)", "% E (% entrapment)", 96.25),
    ("CCCCC/C=C\\C/C=C\\CCCCCCCC(=O)OCC(COC(=O)CCCCCCC/C=C\\C/C=C\\CCCCC)COC(=O)CCC(CCCCCCCCCCCC)OC(=O)OCCCN(C)C (stereo not drawn)", "% E (% entrapment)", 69.54),
    ("CCCCCCCCCCCCC(CCOC(=O)CCCCC(OCC(CCC)CCC)OCC(CCC)CCC)OC(=O)OCCCN(C)C (stereo not drawn)", "% E (% entrapment)", 95.78),
]

---

Assay: Particle size and polydispersity by DLS of RSV-F replicon LNPs
Type: physicochemical
Settings: RSV-F replicon LNP prepared for 2nd IM
PDI by entry:

# molecule, PDI
measured = [
    ("CCCCCCCCCCCCC(CCOC(=O)CCCCC(OCC(CCC)CCC)OCC(CCC)CCC)OC(=O)OCCCN(C)C (stereo not shown) [Example 115]", 0.065),
    ("CCCCCCCCCC(=O)OCCC(CC(CCCCCCCC)CCCCCCCC)OC(=O)OCCCN(C)C (stereo not shown) [Example 70]", 0.118),
    ("CCCCCCCCCCCCC(CCOC(=O)CCCCC(OCC(CC)CCCC)OCC(CC)CCCC)OC(=O)OCCCN(CC)CC (stereo not shown) [Example 18]", 0.065),
    ("CCCCC/C=C\\C/C=C\\CCCCCCCC(=O)OCC(COC(=O)CCCCCCC/C=C\\C/C=C\\CCCCC)OC(=O)C(CCCCCCCCCCCC)OC(=O)OCCCN(C)C (stereo not shown) [Example 98]", 0.065),
]

---

Assay: Percent encapsulation of mRNA in lipid nanoparticles (Quant-iT Ribogreen)
Assay type: physicochemical
Settings: Table 2; leptin mRNA in LNP with the cationic lipid
% encapsulation mRNA Leptin by entry:

# molecule, unitsLabel, % encapsulation mRNA Leptin
data = [
    ("CCCCCCCCCCCCC(CCC(=O)OC(COC(=O)CCCCCCC)COC(=O)CCCCCCC)OC(=O)OCCCN(C)CC (centres unmarked) [Example 93]", "%", 82.0),
    ("CCCCCCCC/C=C\\CCCCCCCC(=O)OCC(COC(=O)CCCCCCC/C=C\\CCCCCCCC)OC(=O)CCC(CCCCCCCCCCCC)OC(=O)OCCCN(C)C (centres unmarked) [Example 83]", "%", 48.9),
    ("CCCCCCCCCCCCC(CCOC(=O)CCCCC(OCCCCCCCC)OCCCCCCCC)OC(=O)C1(C)CCN(C)C1 (centres unmarked) [Example 120]", "%", 96.1),
    ("CCCCCCCCCCCCC(CCOC(=O)OCCCN(CC)CC)OC(=O)CCCCC(COC(=O)CCCCCCC)COC(=O)CCCCCCC (centres unmarked) [Example 142]", "%", 92.5),
    ("CCCCCCCCCCCCCC(=O)OCC(COC(=O)CCCCCCCCCCCCC)OC(=O)CCC(CCCCCCCCCCCC)OC(=O)OCCCN(CC)CC (centres unmarked) [Example 84]", "%", 83.1),
    ("CCCCCCCCCCCCC(CCCOC(=O)CCCCC(COC(=O)CCCCCCC)COC(=O)CCCCCCC)OC(=O)O[C@@H]1CCN(C)C1 (some centres unmarked) [Example 135]", "%", 96.2),
    ("CCCCC/C=C\\C/C=C\\CCCCCCCCC(CCC(=O)OC(COC(=O)CCCCCCC)COC(=O)CCCCCCC)OC(=O)OCCCN(C)C (centres unmarked) [Example 94]", "%", 98.1),
    ("CCCCCCCCCCCCC(CCOC(=O)CCCCC(OCCCCCCCC)OCCCCCCCC)OC(=O)C1(C)CCN(C)CC1 (centres unmarked) [Example 122]", "%", 97.5),
    ("CCCCCCCCCCCCC(CCOC(=O)CCCCC(OCCCCCCCC)OCCCCCCCC)OC(=O)OCCCN1CCN(C)CC1 (centres unmarked) [Example 110]", "%", 59.3),
    ("CCCCCCCCCCCCC(CCCOC(=O)CCCCC(COC(=O)CCCCCCC)COC(=O)CCCCCCC)OC(=O)OC1CCN(C)CC1 (centres unmarked) [Example 137]", "%", 98.1),
    ("CCCCCCCCCCCCC(CCOC(=O)CCCCCC(COC(=O)CCCCCCC)COC(=O)CCCCCCC)OC(=O)OCCCN(CC)CC (centres unmarked) [Example 6]", "%", 24.0),
    ("CCCCCCCCCCCCC(CCOC(=O)CCCCC(OCCCCCCCC)OCCCCCCCC)OC(=O)CCCCN(CC)CC (centres unmarked) [Example 123]", "%", 83.8),
    ("CCCCCCCCCCCCC(CCOC(=O)CCCCC(OCC(CCC)CCC)OCC(CCC)CCC)OC(=O)OCCCN(CC)CC (centres unmarked) [Example 114]", "%", 98.4),
    ("CCCCCCCCCCCCC(CCCOC(=O)CCCCC(COC(=O)CCCCCCC)COC(=O)CCCCCCC)OC(=O)O[C@H]1CCN(C)C1 (some centres unmarked) [Example 134]", "%", 96.6),
    ("CCCCCCCCCCCCC(CCOC(=O)CCCCC(OCCCCCCCC)OCCCCCCCC)OC(=O)OCCCN1CCOCC1 (centres unmarked) [Example 112]", "%", 32.9),
    ("CCCCCCCCCCC(CCOC(=O)CCCCC(OCCCCCCCC)OCCCCCCCC)OC(=O)OCCCN(CC)CC (centres unmarked) [Example 126]", "%", 97.4),
    ("CCCCCCCCCCCCC(CCC(=O)OC(COC(=O)CCCCCCCCC)COC(=O)CCCCCCCCC)OC(=O)OCCCN(C)CC (centres unmarked) [Example 91]", "%", 94.4),
]
